Tested on: PLK1 (Homo sapiens, UniProt P53350)
Sequence (P53350 whole entry): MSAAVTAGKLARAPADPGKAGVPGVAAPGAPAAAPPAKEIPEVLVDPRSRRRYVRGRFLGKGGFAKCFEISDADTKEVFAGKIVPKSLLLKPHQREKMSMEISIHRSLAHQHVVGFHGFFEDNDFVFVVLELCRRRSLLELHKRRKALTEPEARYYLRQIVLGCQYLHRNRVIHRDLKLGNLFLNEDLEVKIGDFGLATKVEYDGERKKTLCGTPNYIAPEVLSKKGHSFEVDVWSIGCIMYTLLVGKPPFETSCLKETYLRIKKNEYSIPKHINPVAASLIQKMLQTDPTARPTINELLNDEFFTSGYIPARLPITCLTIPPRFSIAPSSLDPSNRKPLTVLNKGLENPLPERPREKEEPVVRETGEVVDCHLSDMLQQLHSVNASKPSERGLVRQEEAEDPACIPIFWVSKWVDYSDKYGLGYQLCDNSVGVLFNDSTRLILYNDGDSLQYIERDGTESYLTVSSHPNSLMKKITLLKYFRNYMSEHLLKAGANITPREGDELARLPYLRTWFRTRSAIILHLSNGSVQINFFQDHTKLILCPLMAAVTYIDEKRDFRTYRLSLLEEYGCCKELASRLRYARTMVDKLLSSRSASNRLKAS
Experiment summary: PLK1 protein kinase assay (CDC25C phosphorylation, [γ-32P]-ATP)
Assay type: biochemical
Test conditions: Table 2, PLK1 IC50; class symbols; read-out: PLK1 IC50
// reported IC50 per item
Assay endpoint: IC50

{"Compound": "COc1ccc(N2CCC(=O)N(C)c3cnc(Nc4ccc(C(=O)NC5CN6CCC5CC6)cc4OC)nc32)cc1 (stereo not drawn) [compound 317]", "Measurement": "< 1 µM"}
{"Compound": "CN1CCC(NC(=O)c2ccc(Nc3ncc4c(n3)N(C3CCCC3)CC3(CC3)C(=O)N4C)c(OC(F)(F)F)c2)CC1 [compound 284]", "Measurement": "< 0.1 µM"}
{"Compound": "CN1C(=O)CCN(C2CCCC2)c2nc(NCc3ccoc3)ncc21 [compound 107]", "Measurement": "< 10 µM"}
{"Compound": "CN1C(=O)CCN(C2CCCC2)c2nc(NCc3ccc4c(c3)OCCO4)ncc21 [compound 127]", "Measurement": "< 10 µM"}
{"Compound": "COc1cc(C(=O)NCCCO)ccc1Nc1ncc2c(n1)N(C1CCCC1)CCC(=O)N2C [compound 159]", "Measurement": "< 1 µM"}
{"Compound": "CCN(CC)CCNC(=O)c1ccc(Nc2ncc3c(n2)N(c2ccc(OC)cc2)CCC(=O)N3C)c(OC)c1 [compound 319]", "Measurement": "< 10 µM"}
